System: Key Broadleaf Weed and Crop Species
Assay: Post-Emergent Test II: postemergent herbicidal activity, visual rating after 14 d (Table 7)
Format: in vivo
Settings: post-emergence, 336 h, AMARE: redroot pigweed (Amaranthus retroflexus), 140 g ai/ha, read-out: Visual Growth Reduction (%) 14 Days After Application AMARE
Procedure: Herbicidal evaluations were made visually on a scale of 0 to 100 where 0 represents no activity and 100 represents complete plant death. […] A weighed amount, determined by the highest rate to be tested, of each test compound was placed in a 25 mL glass vial and was dissolved in 4 mL of a 97:3 v/v mixture of acetone and DMSO to obtain concentrated stock solutions. […]
measured attribute: pest or weed control at 140 g/ha

compound	tgt	experimental result
COc1c(N)nc(-c2ccc(Cl)c3c2OC(F)(F)O3)nc1C(=O)O [Compound 96]	Key Broadleaf Weed and Crop Species	95 to 100%
Nc1cc(-c2ccc(F)c3c2OC(F)(F)O3)nc(C(=O)O)c1Cl [Compound 89]	Key Broadleaf Weed and Crop Species	95 to 100%
COC(=O)c1nc(-c2cccc3c2OC(F)(F)O3)nc(N)c1OC [Compound 99]	Key Broadleaf Weed and Crop Species	0 to 29%
COC(=O)c1nc(-c2ccc(F)c3c2OCO3)c(F)c(N)c1Cl [Compound 83]	Key Broadleaf Weed and Crop Species	95 to 100%
COC(=O)c1nc(-c2ccc(F)c3c2OCO3)cc(N)c1Cl [Compound 92]	Key Broadleaf Weed and Crop Species	95 to 100%
COC(=O)c1nc(-c2ccc3c(c2)CCN3C)c(F)c(N)c1Cl [Compound 107]	Key Broadleaf Weed and Crop Species	0 to 29%
COC(=O)c1nc(-c2ccc(F)c3c2OCO3)nc(N)c1OC [Compound 97]	Key Broadleaf Weed and Crop Species	0 to 29%
Nc1cc(-c2c(F)ccc3c2OC(F)(F)O3)nc(C(=O)O)c1Cl [Compound 91]	Key Broadleaf Weed and Crop Species	95 to 100%

Next item in the queue.
Q: For COC(=O)c1nc(-c2ccc(Cl)c3c2OC(F)(F)O3)nc(N)c1OC [Compound 95] , what is its reported pest or weed control at 140 g/ha?
A: 95 to 100%
